assay-system: JAK1 (Homo sapiens (Human))
Sequence (P23458 875-1153): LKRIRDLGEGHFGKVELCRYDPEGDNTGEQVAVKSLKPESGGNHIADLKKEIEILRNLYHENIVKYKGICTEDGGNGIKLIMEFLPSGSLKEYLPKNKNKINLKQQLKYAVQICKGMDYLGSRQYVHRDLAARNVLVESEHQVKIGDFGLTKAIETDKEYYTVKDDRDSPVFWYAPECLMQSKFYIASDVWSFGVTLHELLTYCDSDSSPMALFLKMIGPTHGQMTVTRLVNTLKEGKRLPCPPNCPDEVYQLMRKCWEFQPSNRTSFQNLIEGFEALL
procedure-details: Jak biochemical HTRF assay, JAK1
condition-description: JAK1 IC50 (nM), recombinant GST-tagged catalytic domain, [ATP] 31.8 μM
assay-readout: IC50 (nM)
Report the figure in nM without appending any unit label.

1) CC(C)C(CC#N)n1cc(C(N)=O)c(Nc2ccccc2)n1 (centres unmarked) | 64
2) N#CCC(C1CC1)n1cc(C(N)=O)c(Nc2ccc(N3CCOCC3)cc2)n1 (centres unmarked) | 13
3) CC(CC#N)n1cc(C(N)=O)c(Nc2ccc(C(=O)N3CCS(=O)(=O)CC3)cc2)n1 (centres unmarked) | 19

Query: Given the compound N#CCC(C1CC1)n1cc(C(N)=O)c(Nc2ccc3c(c2)C=CS3(=O)=O)n1 (centres unmarked) , what is its reported IC50?
Result: 2

Query: Fill in: IC50 of N#CCC(C1CC1)n1cc(C(N)=O)c(Nc2cccc(CO)c2)n1 (centres unmarked) is ___
Result: 12

Query: Consider the compound shown here: N#CCC(C1CC1)n1cc(C(N)=O)c(Nc2ccnc(Cl)c2)n1 (centres unmarked) What is its recorded IC50?
Result: 166

Query: What value of measured IC50 is listed for CC(CC#N)n1cc(C(N)=O)c(Nc2ccc(S(C)(=O)=O)cc2)n1 (centres unmarked) ?
Result: 7

Query: What value of measured IC50 is listed for N#CCC(C1CC1)n1cc(C(N)=O)c(Nc2cccnc2)n1 (centres unmarked) ?
Result: 33

Query: For the compound CS(=O)(=O)CCOC(=O)N1CCC(C(CC#N)n2cc(C(N)=O)c(Nc3ccc(F)cc3)n2)CC1 (centres unmarked) , what IC50 is on record?
Result: 122

Query: Quick one: IC50 of CN(C)S(=O)(=O)c1ccc(Nc2nn(C(CC#N)C3CC3)cc2C(N)=O)cc1 (centres unmarked) ?
Result: 1

Query: What value of IC50 has been recorded for this entry: N#CCC(C1CC1)n1cc(C(N)=O)c(Nc2ccccc2F)n1 (centres unmarked)
Result: 360

Query: Item under review: "N#CCCn1cc(C(N)=O)c(Nc2ccccc2)n1" . Reported IC50?
Result: 348

Data origin: patent US9493441B2
